- Method Summary: Quantitative High-Throughput drug screen in 47 multiple myeloma cell lines against the NCATS MIPE library collection: KMS11_JCRBsus cell viability assay (AID 1919873); note: nearly all actives have a fitted effect of over 50% in size
- Condition Label: KMS11 myeloma viability, CellTiter-Glo ATP luminescence, 48 h; series mostly up to 45.8 µM
Records with an inconclusive call do not appear. Activity calls are given as the source filed them. Calls come from the whole dose curve; as a rule, active = well fitted cell-killing curve with a large enough effect; inconclusive = small, poorly fitted or top-dose-only effect, or effect the other way; inactive = no such curve, though single readings can be large or run the other way.
Your reply should match one of these outcome classes. active, inactive

The examples below pair each entry with its known result.
C[C@@H](N)C1CCC(C(=O)Nc2ccncc2)CC1 (stereo partly specified)
inactive
Nc1nc(Cl)nc2c1ncn2[C@H]1C[C@H](O)[C@@H](CO)O1
active
CN(C)C(=O)[C@H](O)[C@H](Cc1ccccc1)NC(=O)c1cc2cc(Cl)ccc2[nH]1
active
O=C1c2ccccc2-c2n[nH]c3cccc1c23
inactive
CC(C)C[C@H](NC(=O)[C@H](Cc1ccccc1)NC(=O)c1cnccn1)B(O)O
active

Please look at the following molecule next.
Called result for `Cc1cc2c(s1)Nc1ccccc1N=C2N1CCN(C)CC1`
inactive

From: PubChem BioAssay (NCATS)
